Readings of MIC for the listed molecules
- Test system: Pseudomonas aeruginosa
- test details: In vitro antibacterial activity of compound against Pseudomonas aeruginosa 2032E WT was determined
- Assay type: functional

{"molecule": "C[C@@H](O)[C@H]1C(=O)N2C(C(=O)O)=C3C[C@@H](CCO)CC[C@@H]3[C@H]12", "measured on": "Pseudomonas aeruginosa", "MIC": "> 32 µg/mL"}
{"molecule": "COCC[C@H]1CC[C@H]2C(=C(C(=O)O)N3C(=O)[C@H]([C@@H](C)O)[C@@H]23)C1", "measured on": "Pseudomonas aeruginosa", "MIC": "> 32 µg/mL"}
{"molecule": "CO[C@H]1CC[C@H]2C(=C(C(=O)O)N3C(=O)[C@H]([C@@H](C)O)[C@@H]23)C1", "measured on": "Pseudomonas aeruginosa", "MIC": "> 32 µg/mL"}
{"molecule": "C[C@@H](O)[C@H]1C(=O)N2C(C(=O)O)=C(SCCNC=N)C[C@H]12 [IMIPENEM ANHYDROUS]", "measured on": "Pseudomonas aeruginosa", "MIC": "4 µg/mL"}

---

- System: Escherichia coli
- test details: In vitro antibacterial activity of compound against Escherichia coli 851E was determined
- Assay type: functional
metric name: MIC

{"compound": "C[C@@H](O)[C@H]1C(=O)N2C(C(=O)O)=C(SCCNC=N)C[C@H]12 [IMIPENEM ANHYDROUS]", "test value": "0.5 µg/mL"}
{"compound": "C[C@@H](O)[C@H]1C(=O)N2C(C(=O)O)=C3C[C@@H](CCO)CC[C@@H]3[C@H]12", "test value": "1 µg/mL"}
{"compound": "CO[C@H]1CC[C@H]2C(=C(C(=O)O)N3C(=O)[C@H]([C@@H](C)O)[C@@H]23)C1", "test value": "8 µg/mL"}
{"compound": "COCC[C@H]1CC[C@H]2C(=C(C(=O)O)N3C(=O)[C@H]([C@@H](C)O)[C@@H]23)C1", "test value": "8 µg/mL"}

---

Readings of MIC for the listed compounds
- System: Bacteroides fragilis
- test details: In vitro antibacterial activity of compound against Bacteroides fragilis 2017E was determined
- Assay type: functional
metric name: MIC (µg/mL)

{"compound": "C[C@@H](O)[C@H]1C(=O)N2C(C(=O)O)=C3C[C@@H](CCO)CC[C@@H]3[C@H]12", "test value": 16}
{"compound": "CO[C@H]1CC[C@H]2C(=C(C(=O)O)N3C(=O)[C@H]([C@@H](C)O)[C@@H]23)C1", "test value": 16}
{"compound": "COCC[C@H]1CC[C@H]2C(=C(C(=O)O)N3C(=O)[C@H]([C@@H](C)O)[C@@H]23)C1", "test value": 16}
{"compound": "C[C@@H](O)[C@H]1C(=O)N2C(C(=O)O)=C(SCCNC=N)C[C@H]12 [IMIPENEM ANHYDROUS]", "test value": 0.2}
{"compound": "CO[C@H]1CCC[C@H]2C1=C(C(=O)[O-])N1C(=O)[C@H]([C@@H](C)O)[C@@H]21.[Na+] [SANFETRINEM SODIUM]", "test value": 0.06}
